- SYSTEM: Hexokinase-4 (Homo sapiens) + Glucokinase regulatory protein (Homo sapiens) (UniProt P35557+Q14397)
- Sequence (P35557 whole entry, looked up): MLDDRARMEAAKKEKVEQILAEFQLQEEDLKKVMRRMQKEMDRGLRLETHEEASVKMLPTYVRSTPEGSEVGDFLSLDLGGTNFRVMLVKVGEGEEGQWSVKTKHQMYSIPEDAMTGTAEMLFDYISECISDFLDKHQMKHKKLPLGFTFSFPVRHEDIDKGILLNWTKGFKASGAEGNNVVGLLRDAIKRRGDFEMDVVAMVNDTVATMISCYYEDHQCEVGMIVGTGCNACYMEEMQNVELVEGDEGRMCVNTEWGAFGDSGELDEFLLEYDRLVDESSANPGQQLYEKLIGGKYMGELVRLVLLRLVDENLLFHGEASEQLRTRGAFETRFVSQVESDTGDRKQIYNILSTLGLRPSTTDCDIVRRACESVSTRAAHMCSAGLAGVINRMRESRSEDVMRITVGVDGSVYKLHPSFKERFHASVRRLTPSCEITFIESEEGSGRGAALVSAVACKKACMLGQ
- Sequence (Q14397 whole entry, looked up): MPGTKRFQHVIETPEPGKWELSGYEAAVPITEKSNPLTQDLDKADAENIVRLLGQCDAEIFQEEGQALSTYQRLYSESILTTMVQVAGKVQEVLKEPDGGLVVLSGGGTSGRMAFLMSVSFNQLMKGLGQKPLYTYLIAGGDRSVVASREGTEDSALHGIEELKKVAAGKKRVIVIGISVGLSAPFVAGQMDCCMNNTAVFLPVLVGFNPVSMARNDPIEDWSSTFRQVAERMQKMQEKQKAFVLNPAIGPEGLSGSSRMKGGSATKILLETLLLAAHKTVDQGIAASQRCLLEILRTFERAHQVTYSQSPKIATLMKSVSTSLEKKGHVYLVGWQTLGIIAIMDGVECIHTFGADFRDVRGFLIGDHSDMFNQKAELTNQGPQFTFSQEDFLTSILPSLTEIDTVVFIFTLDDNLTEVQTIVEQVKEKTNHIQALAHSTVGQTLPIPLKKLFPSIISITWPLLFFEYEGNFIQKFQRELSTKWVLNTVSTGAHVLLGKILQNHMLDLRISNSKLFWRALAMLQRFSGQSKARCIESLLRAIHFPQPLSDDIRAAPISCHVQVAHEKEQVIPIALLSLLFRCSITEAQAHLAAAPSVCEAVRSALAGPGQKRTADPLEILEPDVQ
- ASSAY DETAILS: qHTS assay for inhibitors of recombinant human GCK-GKRP interaction: Diaphorase-coupled assay (AID 743205)
- ASSAY CONDITIONS: G6PDH/diaphorase resorufin fluorescence; series mostly up to 57.5 µM
Calls of active or inactive are those of the source. The call rests on the fitted dose curve; in most records, active means well fitted curve in the direction sought with a large enough effect; inconclusive means small, poorly fitted or top-dose-only effect, or another doubt; inactive means no such curve, though single readings can be large or run the other way.
ASSAY METRIC: outcome

Reference set, count: 6
1. NCCc1cnc[nH]1
inactive
2. CCN1CCCC1CNC(=O)c1cc(S(=O)(=O)CC)c(N)cc1OC (configuration not stated)
inactive
3. COc1ccc2c(c1)c(CC(=O)O)c(C)n2C(=O)c1ccc(Cl)cc1
inactive
4. O=C1Cc2cc(CCN3CCN(c4nsc5ccccc45)CC3)c(Cl)cc2N1
inactive
5. CC(C)Cc1ccc(C(C)C(=O)O)cc1 (configuration not stated)
inactive
6. Nc1c2c(nc3ccccc13)CCCC2
inactive

Short answer for Cn1c(=O)c2[nH]cnc2n(C)c1=O : outcome was inactive

Short answer for OCCN1CCN(CCCN2c3ccccc3Sc3ccc(C(F)(F)F)cc32)CC1 : outcome was inactive

Short answer for COc1ccccc1N1CCN(CC(O)COc2cccc3ccccc23)CC1 (configuration not stated) : outcome was inactive

Short answer for CN(C)CCCN1c2ccccc2CCc2ccc(Cl)cc21 : outcome was inactive

Short answer for Clc1ccc2c(c1)C(N1CCNCC1)=Nc1ccccc1O2 : outcome was inactive

Short answer for Clc1ccc2nsnc2c1NC1=NCCN1 : outcome was inactive

###

- Test system: CP191
- ASSAY DETAILS: qHTS profiling for inhibitors of Plasmodium falciparum proliferation (AID 504749); further: nearly all actives have a fitted effect of over 60% in size
- ASSAY CONDITIONS: P. falciparum in erythrocytes, SYBR Green DNA, 72 h; series mostly up to 28.7 µM
Inconclusive results are not listed. Active and inactive are the calls of the source. The call rests on the fitted dose curve; in most records, active means well fitted inhibition curve with a large enough effect; inconclusive means small, poorly fitted or top-dose-only effect; inactive means flat fitted curve, though single readings scatter.
Log the outcome using a class from active, inactive

Hello, I am checking results. What call was entered for CN(C)C(=N)N=C(N)N ?
inactive

Hello, I am checking results. What call was entered for Nc1nc2c(ncn2COC(CO)CO)c(=O)[nH]1 ?
inactive

Hello, I am checking results. What call was entered for CCOC(=O)C(C)(C)Oc1ccc(Cl)cc1 ?
inactive

Hello, I am checking results. What call was entered for Nc1nnc(-c2cccc(Cl)c2Cl)c(N)n1 ?
inactive

Hello, I am checking results. What call was entered for NCCCCCC(=O)O ?
inactive

Hello, I am checking results. What call was entered for COc1nc(C)nc(Cl)c1NC1=NCCN1 ?
inactive

Hello, I am checking results. What call was entered for CCC1(c2ccccc2)C(=O)NCNC1=O ?
inactive

Hello, I am checking results. What call was entered for CC(COc1ccccc1)N(CCCl)Cc1ccccc1 (stereo not drawn) ?
inactive

Hello, I am checking results. What call was entered for OCCN1CCN(CCCN2c3ccccc3Sc3ccc(C(F)(F)F)cc32)CC1 ?
active

Hello, I am checking results. What call was entered for Cn1c(=O)c2c(ncn2C)n(C)c1=O ?
inactive

Hello, I am checking results. What call was entered for CC(C)C(=O)Nc1ccc([N+](=O)[O-])c(C(F)(F)F)c1 ?
inactive

Hello, I am checking results. What call was entered for CN1CCN2c3ccccc3Cc3ccccc3C2C1 (stereo not drawn) ?
inactive

Hello, I am checking results. What call was entered for Clc1ccccc1C(c1ccccc1)(c1ccccc1)n1ccnc1 ?
active

###

- SYSTEM: Rap guanine nucleotide exchange factor 4 (Homo sapiens) (UniProt Q8WZA2)
- Sequence (Q8WZA2 whole entry, looked up): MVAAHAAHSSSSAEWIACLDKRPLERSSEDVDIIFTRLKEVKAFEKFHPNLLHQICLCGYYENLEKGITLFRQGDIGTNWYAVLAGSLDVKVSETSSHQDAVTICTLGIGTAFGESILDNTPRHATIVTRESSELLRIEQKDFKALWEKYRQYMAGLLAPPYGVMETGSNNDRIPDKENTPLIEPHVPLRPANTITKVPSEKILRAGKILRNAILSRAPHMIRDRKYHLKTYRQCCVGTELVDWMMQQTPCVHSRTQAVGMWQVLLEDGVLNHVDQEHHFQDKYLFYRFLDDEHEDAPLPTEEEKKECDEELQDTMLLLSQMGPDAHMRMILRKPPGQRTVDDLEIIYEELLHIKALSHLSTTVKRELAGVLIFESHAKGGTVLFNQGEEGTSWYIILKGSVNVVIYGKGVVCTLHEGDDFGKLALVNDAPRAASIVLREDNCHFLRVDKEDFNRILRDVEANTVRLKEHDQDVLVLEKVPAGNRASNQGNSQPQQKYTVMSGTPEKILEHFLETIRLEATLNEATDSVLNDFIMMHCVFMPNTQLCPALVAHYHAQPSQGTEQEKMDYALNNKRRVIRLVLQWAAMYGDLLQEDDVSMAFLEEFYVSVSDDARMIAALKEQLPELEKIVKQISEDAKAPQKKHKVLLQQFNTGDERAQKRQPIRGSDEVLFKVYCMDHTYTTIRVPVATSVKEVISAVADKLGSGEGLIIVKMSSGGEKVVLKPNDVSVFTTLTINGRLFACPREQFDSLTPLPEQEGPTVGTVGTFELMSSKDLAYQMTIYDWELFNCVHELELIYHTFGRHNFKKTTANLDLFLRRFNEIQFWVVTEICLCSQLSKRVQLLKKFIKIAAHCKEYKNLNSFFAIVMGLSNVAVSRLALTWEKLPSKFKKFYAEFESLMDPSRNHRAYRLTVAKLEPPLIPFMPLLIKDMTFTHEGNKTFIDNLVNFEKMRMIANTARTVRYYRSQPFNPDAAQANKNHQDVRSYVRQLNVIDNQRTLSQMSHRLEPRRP
- ASSAY DETAILS: Confirmatory qHTS for antagonist of cAMP-regulated guanine nucleotide exchange factor 4 (EPAC2) (AID 1645885); further: nearly all actives have a fitted effect of over 25% in size
- ASSAY CONDITIONS: EPAC2 Rap1B-BODIPY-GDP exchange fluorescence, biochemical; series mostly up to 114 µM
Inconclusive results are not listed. Activity calls are given as the source filed them. Calls follow the shape of the dose curve; as a rule, active = well fitted inhibition curve with a large enough effect; inconclusive = small, poorly fitted or top-dose-only effect; inactive = no such curve, though single readings can be large or run the other way.
Log the outcome using a class from t for active, f for inactive

Hello, I am checking results. What call was entered for OCCN1CCN(CCCN2c3ccccc3Sc3ccc(C(F)(F)F)cc32)CC1 ?
t

Hello, I am checking results. What call was entered for CN1CCN(CCCN2c3ccccc3Sc3ccc(Cl)cc32)CC1 ?
t

Hello, I am checking results. What call was entered for CC[C@@]1(O)C(=O)OCc2c1cc1n(c2=O)Cc2cc3c(CN(C)C)c(O)ccc3nc2-1 ?
f

Hello, I am checking results. What call was entered for NCCS(=O)(=O)O ?
f

###

- ASSAY DETAILS: Quantitative High-Throughput drug screen in 47 multiple myeloma cell lines against the NCATS MIPE library collection: JIM3_ECACC cell viability assay (AID 1918963; further: nearly all actives have a fitted effect of over 35% in size)
- ASSAY CONDITIONS: JIM3 myeloma viability, CellTiter-Glo ATP, 48 h; series mostly up to 45.8 µM
Inconclusive results are not listed. Activity calls are given as the source filed them. Calls come from the whole dose curve; as a rule, active = well fitted cell-killing curve with a large enough effect; inconclusive = small, poorly fitted or top-dose-only effect; inactive = no such curve, though single readings can be large or run the other way.
Log the outcome using a class from yes (active), no (inactive)

Hello, I am checking results. What call was entered for O=C1Cc2cc(CCN3CCN(c4nsc5ccccc45)CC3)c(Cl)cc2N1 ?
yes

Hello, I am checking results. What call was entered for CC(COc1ccccc1)N(CCCl)Cc1ccccc1 (stereo not drawn) ?
no

Hello, I am checking results. What call was entered for COc1cc2nc(N(C)CCCNC(=O)C3CCCO3)nc(N)c2cc1OC (stereo not drawn) ?
no

Hello, I am checking results. What call was entered for Clc1ccc2nsnc2c1NC1=NCCN1 ?
no

Hello, I am checking results. What call was entered for CN(C)CCCN1c2ccccc2CCc2ccc(Cl)cc21 ?
yes

Hello, I am checking results. What call was entered for O=c1c(-c2ccc(O)cc2)coc2cc(O)cc(O)c12 ?
no

Hello, I am checking results. What call was entered for Nc1ccn([C@H]2CC[C@@H](CO)O2)c(=O)n1 ?
yes

Hello, I am checking results. What call was entered for Nc1nc2c(ncn2COC(CO)CO)c(=O)[nH]1 ?
yes

Hello, I am checking results. What call was entered for CN1CCN(CCCN2c3ccccc3Sc3ccc(Cl)cc32)CC1 ?
yes

Hello, I am checking results. What call was entered for CCCNCC(O)COc1ccccc1C(=O)CCc1ccccc1 (stereo not drawn) ?
no

Hello, I am checking results. What call was entered for CC1(CN2CCC(n3c(=O)[nH]c4ccccc43)CC2)OCc2ccccc2-n2cccc21 (stereo not drawn) ?
no

Hello, I am checking results. What call was entered for OCCN1CCN(CCCN2c3ccccc3Sc3ccc(C(F)(F)F)cc32)CC1 ?
yes

Hello, I am checking results. What call was entered for Cc1cc(C(C)(C)C)c(O)c(C)c1CC1=NCCN1 ?
no

Hello, I am checking results. What call was entered for CC[N+](CC)(CC)CCOc1cccc(OCC[N+](CC)(CC)CC)c1OCC[N+](CC)(CC)CC ?
no

Hello, I am checking results. What call was entered for CN(C)c1nc(N(C)C)nc(N(C)C)n1 ?
no

Hello, I am checking results. What call was entered for CCN1CCCC1CNC(=O)c1cc(S(=O)(=O)CC)c(N)cc1OC (stereo not drawn) ?
no

Hello, I am checking results. What call was entered for NC(CO)C(=O)NNCc1ccc(O)c(O)c1O (stereo not drawn) ?
no

Hello, I am checking results. What call was entered for COc1cc2c(c(OC)c1OC)-c1ccc(OC)c(=O)cc1[C@@H](NC(C)=O)CC2 ?
no

Hello, I am checking results. What call was entered for COc1ccccc1OCC(O)CN1CCN(CC(=O)Nc2c(C)cccc2C)CC1 (stereo not drawn) ?
no

Hello, I am checking results. What call was entered for CC1COc2c(N3CCN(C)CC3)c(F)cc3c(=O)c(C(=O)O)cn1c23 (stereo not drawn) ?
no

Hello, I am checking results. What call was entered for COc1ccc2c(c1)c(CC(=O)O)c(C)n2C(=O)c1ccc(Cl)cc1 ?
no

Hello, I am checking results. What call was entered for Cc1cnc(C(=O)NCCc2ccc(S(=O)(=O)NC(=O)NC3CCCCC3)cc2)cn1 ?
yes

Hello, I am checking results. What call was entered for Cn1c(=O)c2[nH]cnc2n(C)c1=O ?
no

Hello, I am checking results. What call was entered for Cc1cn([C@H]2C[C@H](N=[N+]=[N-])[C@@H](CO)O2)c(=O)[nH]c1=O ?
yes

Hello, I am checking results. What call was entered for CN(C)CCOC(c1ccccc1)c1ccccc1 ?
yes

Hello, I am checking results. What call was entered for O=C1c2c(O)ccc(O)c2C(=O)c2c(NCCNCCO)ccc(NCCNCCO)c21 ?
yes

Hello, I am checking results. What call was entered for COc1ccccc1N1CCN(CC(O)COc2cccc3ccccc23)CC1 (stereo not drawn) ?
yes

Hello, I am checking results. What call was entered for CC1(C)O[C@H]2CC(=O)OC[C@]23[C@H]2CC[C@@]4(C)[C@H](c5ccoc5)OC(=O)[C@H]5O[C@]54[C@]2(C)C(=O)C[C@@H]13 ?
no

Hello, I am checking results. What call was entered for Fc1ccc([C@@H]2CCNC[C@H]2COc2ccc3c(c2)OCO3)cc1 ?
no

Hello, I am checking results. What call was entered for O=C(C1CCCCC1)N1CC(=O)N2CCc3ccccc3C2C1 (stereo not drawn) ?
no

Hello, I am checking results. What call was entered for O=c1[nH]cc(F)c(=O)[nH]1 ?
yes

Hello, I am checking results. What call was entered for CS(=O)(=O)Nc1ccc([N+](=O)[O-])cc1Oc1ccccc1 ?
no

Hello, I am checking results. What call was entered for Cn1c(=O)c2c(ncn2C)n(C)c1=O ?
no

Hello, I am checking results. What call was entered for COc1cc2nc(N3CCN(C(=O)c4ccco4)CC3)nc(N)c2cc1OC ?
yes

Hello, I am checking results. What call was entered for Cn1cnc2c1c(=O)[nH]c(=O)n2C ?
yes

Hello, I am checking results. What call was entered for Clc1ccc(C(c2ccccc2Cl)C(Cl)Cl)cc1 (stereo not drawn) ?
yes

Hello, I am checking results. What call was entered for CN1C2CCC1CC(OC(=O)C(CO)c1ccccc1)C2 (stereo not drawn) ?
no

Hello, I am checking results. What call was entered for Clc1ccccc1C(c1ccccc1)(c1ccccc1)n1ccnc1 ?
yes

Hello, I am checking results. What call was entered for CC(C)NCC(O)c1ccc(O)c(O)c1 (stereo not drawn) ?
no

Hello, I am checking results. What call was entered for Nc1c2c(nc3ccccc13)CCCC2 ?
no

Hello, I am checking results. What call was entered for CC(C)Cc1ccc(C(C)C(=O)O)cc1 (stereo not drawn) ?
no

Hello, I am checking results. What call was entered for O=C(c1ccc(F)cc1)C1CCN(CCn2c(=O)[nH]c3ccccc3c2=O)CC1 ?
no

Hello, I am checking results. What call was entered for CCC1(c2ccccc2)C(=O)NCNC1=O ?
yes
